Source listed as PubChem BioAssay (NCI).

- Test system: MDA-MB-468 breast
- test-details: NCI tumour cell line growth inhibition, 48 h
Would you kindly list TGI for each of these compounds?
Give bare numbers, in µM.

> print(dat)
                                   compound  assay.metric  obs.value
1  CC(C)(C)CC(C)(C)NCC(O)COc1ccc(C(C)(C)c2ccc(OCC(O)CNC(C)(C)CC(C)(C)C)cc2)cc1 (stereo unspecified)           TGI       2.77
2  C[C@@H]1Cc2c(ccc3[nH]ncc23)[C@@H](c2ccc(NC3CN(CCCF)C3)cn2)N1CC(F)(F)F           TGI       27.8

Please report TGI for every entry that follows.
1. COc1ccc(-c2nc3ccccc3n2CC(=O)N=Nc2c(O)[nH]c3ccc(OC)cc23)cc1
2. Cc1nc2sc(C(=O)Nc3ccccc3)c(N)c2cc1C(=O)c1ccccc1

1. 5.17
2. 28.9

Tell me reported TGI for CNc1nc(-c2ccc3c(N)n[nH]c3c2)cc(N2C[C@@H](C(=O)NC3CCCCC3)CC[C@H]2C)n1 , tested with MDA-MB-468 breast. 2.44

###

- System: MDA-MB-468 breast
- test-details: NCI tumour cell line growth inhibition, 48 h; in the data active = GI50 below about 0.43 µM; inactive = the rest
Choose the fitting class; nothing outside active, inactive is accepted.

compound	category-label
O=C(c1ccc(Cl)cc1)C1[C@H](c2ccccc2Cl)[C@@H](c2ccccc2)NC12C(=O)Nc1ccc(Cl)cc12 (stereo not given in full)	inactive
CC[C@@H](C(=O)[C@@H](C)[C@@H](O)[C@H](C)[C@@H]1O[C@@H]([C@@H](CC)C(=O)O)CC[C@@H]1C)[C@H]1O[C@]2(C=C[C@@H](O)[C@]3(CC[C@@](C)([C@H]4CC[C@](O)(CC)[C@H](C)O4)O3)O2)[C@H](C)C[C@@H]1C	active
C=Cc1cc(OC)c2c(c1)c(=O)oc1c2cc(OC)c2c(O)ccc(C3OC(C(C)O)C(O)C3O)c21 (stereo not given)	active

Fill in: this test's call for CNc1nc(-c2ccc3c(N)n[nH]c3c2)cc(N2C[C@@H](C(=O)NC3CCCCC3)CC[C@H]2C)n1 is ___ active

Could you please tell me the result logged for O=C(N/N=C/c1ccc(N(CCCl)CCCl)cc1)c1ccc(C(=O)N/N=C/c2ccc(N(CCCl)CCCl)cc2)cc1 in this assay? inactive

Any idea what this test logged for COC(=O)Nc1nc2ccc(C(=O)c3cccs3)cc2[nH]1 ? active

Give the logged outcome of this assay for the following compound: Cc1c2ccccc2c(C)n2c1nc1cc(Cl)c(Cl)cc12 inactive

Outcome logged for Cn1cc(-c2csc(-c3cn(C(=O)OC(C)(C)C)c4ccccc34)n2)c2cccnc21 in this assay: inactive

Identify the outcome logged in this assay for the compound shown: NC1=C(O)C(=O)C(c2c[nH]c3ccc(OCc4ccccc4)cc23)O1 (stereo not given) inactive

GET /call?item= CC1=C(SCCC(=O)OC(C[Se]C2=C(C)C(=O)c3ccccc3C2=O)C(=O)NC(C)(C)C)C(=O)c2ccccc2C1=O (stereo not given) returns the recorded outcome of this test. active

Hello, I am checking results. What call was entered for CNC(=O)c1cc(-c2ccc(F)cc2)cc(-c2ccc(S(=O)(=O)N3CCCC3)cc2)c1N ? inactive

Give the logged outcome of this assay for the following compound: COC(=O)c1cc(C)[nH]c2c(C)cc3nc4ccccc4c3c12 inactive

What is the recorded call for this compound in the test? Cc1nc2sc(C(=O)Nc3ccccc3)c(N)c2cc1C(=O)c1ccccc1 inactive

What is the recorded call for this compound in the test? COc1ccc(-c2nc3ccccc3n2CC(=O)N=Nc2c(O)[nH]c3ccc(OC)cc23)cc1 inactive

Hi, sorry to bother you, what did the test record for CSc1nc2ccc(C)cc2cc1/C=C1/C=C(c2ccccc2)NC1=O ? inactive
